Form field: composite z-score (one value per entry).
assaySystem: Albumin (Bos taurus)
protocol: bovine serum albumin binders on microarray, profiling panel, artefact control for SMM control protein annotation, biochemical, small-molecule microarray, Alexa647 label, 635/667 nm fluorescence (AID 1118);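 note: score merges 667 nm emission intensity and signal-to-noise per printed compound spot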
conditionDetails: BSA-A647 binding, fluorescence 635 nm, higher = more signal
Reply with just the number.

Some solved entries appear below for comparison.
compound	assaySystem	composite z-score
C=C[C@H](OC)[C@@H](OC(=O)Nc1ccc(OC)cc1)c1ccc(O)c(F)c1	Albumin (Bos taurus)	-1.15
COC(=O)[C@@]1(Cc2ccccc2)N=C(c2ccc(OCCCO)cc2)O[C@H]1c1ccccc1	Albumin (Bos taurus)	0.103
COC(=O)[C@@]1(Cc2ccc(OC)cc2)[C@H]2c3cc(C(=O)N4CCCC4)n(Cc4ccc(O)c(OC)c4)c3C[C@H]2CN1C(=O)c1ccccc1	Albumin (Bos taurus)	1.06
CC(C)NC(=O)[C@@]1(c2ccc([N+](=O)[O-])cc2)CC(=O)N(C2CCCCC2)[C@@H]1c1ccc(CO)cc1I	Albumin (Bos taurus)	0.0092
CN(C)C(=O)[C@@]1(CCS(=O)(=O)c2ccccc2)COC(c2ccc(OCCCO)cc2)=N1	Albumin (Bos taurus)	0.401
C=CCN1C(=O)[C@]2(O[C@H](CCn3cc([C@H](O)c4ccccc4)nn3)[C@@H]([Si](C)(C)c3ccc(OC)cc3)[C@@H]2C)c2ccccc21	Albumin (Bos taurus)	-0.0698
COCCOC(=O)N1C(=O)[C@@]2(c3cc(C#CC4(O)CCCCCC4)ccc31)[C@H](c1ccccc1OCCO)N1[C@H](c3ccccc3)[C@H](c3ccccc3)OC(=O)[C@H]1[C@@H]2C(=O)N1CCN(c2ncccn2)CC1	Albumin (Bos taurus)	0.781
CCOC(=O)C[C@H]1[C@H](OC(=O)c2ccc(C(=O)c3ccccc3)cc2)[C@@H](NC(=O)c2ccccc2)c2cc(OCCCO)ccc2N1C(=O)c1ccc2ccccc2n1	Albumin (Bos taurus)	0.783
COc1cc2c(cc1OC)CN(C(=O)[C@@H]1[C@H]3C(=O)O[C@H](c4ccccc4)[C@H](c4ccccc4)N3[C@H](c3ccccc3OCCO)[C@@]13C(=O)Nc1ccc(C#CCCO)cc13)CC2	Albumin (Bos taurus)	0.641
COc1cc(COC(C)=O)ccc1OC(C)=O	Albumin (Bos taurus)	-0.0355

Ask | Kindly state the measured composite z-score obtained for "COC(=O)[C@@]1(Cc2ccc(OC)cc2)[C@H]2c3cc(C(=O)N(C)C)n(Cc4ccc(S(C)(=O)=O)cc4)c3C[C@H]2CN1C(=O)c1ccccc1" with Albumin (Bos taurus).
Reply | 0.49

* * *

Overview of reported composite z-score across a group of compounds:
Test system: XIP peptide (Xip251-270)
protocol: small-molecule binders of XIP peptide, primary screen, biochemical, small-molecule microarray, fluorescence 635/667 nm, 0.5 µg/mL protein (AID 1183)
conditionDetails: small-molecule microarray binding, fluorescence 635 nm; higher = more signal
// response body must contain only the number

These solved cases illustrate the format of a correct answer.
In [3]: df
Out[3]:
                                   compound  measvalue
0  O=C1C2C=CC(C(O)Cc3ccccc3)N(n3cnnc3)C2C(=O)N1Cc1ccccc1 (configuration not stated)      0.686
1  COC(=O)[C@@]1(Cc2ccc(F)cc2)[C@H]2c3cc(C(=O)N(C)C)n(Cc4ccccc4)c3C[C@H]2CN1C(=O)c1ccccc1      0.766
2  COC(=O)[C@@]1(Cc2ccc(F)cc2)[C@H]2c3cc(C(=O)N4CCCC4)n(Cc4ccc(S(C)(=O)=O)cc4)c3C[C@H]2CN1C(=O)c1ccccc1      0.116
3  O=C(CS)NCCCCCCNC(=O)[C@@H]1C[C@@H]2C(=O)NCC(=O)N2[C@@H]1c1cccc(OCCO)c1      0.579
4  CCOC(=O)C[C@H]1[C@H](OC(=O)c2cc3ccccc3oc2=O)[C@@H](NC(=O)c2ccccc2)c2cc(OCCCO)ccc2N1C(=O)c1ccc2ccccc2n1      0.503
5  COc1ccc(C(O)C2C=CC3C(=O)N(Cc4ccccc4)C(=O)C3N2n2cnnc2)cc1OCc1ccccc1 (configuration not stated)      0.159

We next turn to a different compound, shown below.
Ask | Looking for the measured composite z-score of "CC(=O)NCCCC[C@@H]1NC(=O)[C@H]2C[C@@H](C(=O)NCCCCCCNC(=O)CS)[C@@H](c3ccc(O)cc3)N2C1=O" , can you help?
Reply | 0.818

Origin of the recorded values: PubChem BioAssay
